test system: K4 kissing-loop RNA reporter; assay: apparent KD of K4 kissing-loop reporter; higher = weaker reporter binding; conditions: Eterna round: R107; input ligand: none

Sequence Input	Measurement Units	apparent KD of K4 kissing-loop reporter
GUUACGCAUGGAAGGAGCGCACUCCGAUUGGGCGACGCAGUGAUGUUGUGGUUCGUUCGAAUGCAGGUAGGUCGCCAUGUGUAAC [Ex Arginine B K4 21]	nM	176
UAAUUUAUGUCUUUAAUAUAAUAAUCAGAUACCAGUGAUUUAUGACACCCUUGGCAGCUGUAUAGAGUGAUGUUCUUAUACAUAA [JR_Nu_ExcTheophyA_Sub020]	nM	483
GUCCGGAAGGCGGCUUCACGACCGUGGUGGGAGGAUAUGUCUAAGGACAGAAGGCCCAGUGAUGUUGGGCUUUAGGAGAGCCAUA [Ragele]	nM	143
AAAAUAAACCAGUGAUGUUGGUGUCCAGAUACCAGCGACGAAAGUCGCCCUUGGCAGCUGUGGACGUACAAAAUAAGUACGUCCU	nM	356
GAUUUAGAGGCGGCCGCCACUAGUGAUGUUAGUGAUGUUUGAUAGGGAAUAUAUCAGCGAGUAGAUAGGACCGGGCCAGAUGGAG [gtggbmullin]	nM	203
GACGUUGAAGCGGCCGCCACUAGGAAGGGUACGGAGAGUACAUCUCACGGAGAGUGAUGUUCUCAUAGGACCGGGCUCAUAUCAA [theeternabot_sameState_KL_Trp_B_21]	nM	605
AAUACGCCGAAAGGAUAUAUAGAACAUCAAGGGCGCUGACUUUGCUAAAUCACAAGUGAUGUUUGUAUAGAAGGUUCGCAGUCAA [theeternabot_exclusion_KL_FMN_B_30]	nM	500
CCUAUCUCAUACGAUACCAGUCAAUUAAAACGAGUGAUGUUCGAAAAUUUGCCAUAUAAUGACCCUUGGCAGCGUAUGGGAUAGG [Ex Theophylline B K4 7]	nM	194
UGUCAUUGGUCUGAUACCAGAAGAAUCUGGAGUGAUGUUCCAAGUCGAUCAAAAGAUCGCUUCCCUUGGCAGCAGACCGAUGACU [TheoBS 24 #SwitchBubble 13 #StaticStem]	nM	300
GGUUGAAGCACCCGGAGUGAUGUUCCGGAUACCAGCAAACCAACUUGCCCUUGGCAGCCGUAUAGCGUCCGGUGGGCCGAGCAUA [Beisadi]	nM	97
AAGGUCACUACUACAGUGAUGUUGUGGGAGCAGGAUAUGCAGAAAUGCAGAAGGGCUCGCUCCAGGUGACCGAAUGAAACAUUCA [whbob_SS_FMNA__2th174]	nM	1780
AAUUCAGUGAUGUUGGAAGGCAGGAGGGAUACCAGCGGAAAUAAACGCCCUUGGCAGCCCAAAUAUCCCAAAUAGAUAAUAAUUU [Same State - Theophylline A (Freestyle 1)]	nM	610

====

Below is a list of entries, each paired with its recorded apparent KD of K4 kissing-loop reporter value.
system: K4 kissing-loop RNA reporter; test: apparent KD of K4 kissing-loop reporter; higher = weaker reporter binding; details: Eterna round: R107; input ligand: theophylline 20 uM;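 further: bound reporter read as fluorescence of individual clusters on recovered sequencing chips by microscopy, with normalized cluster intensities fitted with a binding model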

Sequence Input	Target	Measurement Units	apparent KD of K4 kissing-loop reporter
GAUGAAUGCGGAAGGAGCGAGUUUUUGGGAGUGAUGUUCCCUGCAUAUGCACGUGGGAAAGCUCAGGUAGGUCGCCGCGCUUGUU [Same State Arginine B GF 28]	K4 kissing-loop RNA reporter	µM	0.208
UUUUUGGUUUAGAGUGAUGUUCCUUGUAAUCGAGGACCGGUACGGCCGCCACUCGAUUAGAAAAGAAAAGAAAAGAGUGAUGUUU [BDazzled - #2 SS Tryptophan A]	K4 kissing-loop RNA reporter	µM	0.248
CCUAUCUCAUACGAUACCAGUCAAUGAUAUUUUAUCAAUGCCAUCACCGAGUGAUGUUCGGACCCUUGGCAGCGUAUGGGAUAGG [whbob_Ex_Theo_B_sa101]	K4 kissing-loop RNA reporter	µM	0.417
GGUGUUGUUUGUGCUGUUUUCCUCGUUUCUCGAGGACCGGUACGGCCGCCACUCGAGUGAUGUUUGGGUAGCGAUCUUUGUUAGU [Bdazzled - #5 Exc. Tryptophan A]	K4 kissing-loop RNA reporter	µM	0.177
UAUAUAUGAUGUGAUACCAGUGAAAAGCCAGUGAUGUUGGAGGAGCUGGUAUAUAAAUAAGACCCUUGGCAGCACAAUCACGUAU [#01 K4 Theophylline B Exclusion]	K4 kissing-loop RNA reporter	µM	0.221
AAGUGUCAUUAGACACACGCAUCUAUAAACUAGGAUAUGCUGAUAAGCAGAAGGAGUGAUGUUCCUUUCAUGAUGCGAAUUAAAU [#07 K4 FMN A Exclusion]	K4 kissing-loop RNA reporter	µM	0.135
ACGAUCAUGUCGGCCGCCACUGAGAGUAGUGAUGUUACUCUUUUCCUUUAGUUAUUAUAUUUUAUCAGGACCGGGACAUGUUCGU [JR_ExcTryptoB_Sub022]	K4 kissing-loop RNA reporter	µM	0.0696
CGCAGUGAUGUUGCGAGUAACUACAGGGAAGGAGCGCGGUAGUCCGCAGGUAGGUCGCCCACGCAGUGAUGUUGCGUCAUAGGGU [Exclusion Arg A GF7]	K4 kissing-loop RNA reporter	µM	0.118
UACACGACUCGUGUAAACCGAGGUAACAGGCAGGAUAUGUAACGGAACAGAAGGGCCAUGUAGCGUGUCCAGUGAUGUUGGAUGC [Betilare]	K4 kissing-loop RNA reporter	µM	0.18
UAAUUUAUGUCUUUAAUAUAAUAAUCAGAUACCAGUGAUUUAUGACACCCUUGGCAGCUGUAUAGAGUGAUGUUCUUAUACAUAA [JR_Nu_ExcTheophyA_Sub020]	K4 kissing-loop RNA reporter	µM	0.547
GCAGUGAUGUUGCGGAUGUACAGUGGCGUGCGAGGACCGGUACGGCCGCCACUCGUACAGAGCCAGCUAAUACAUCGAUAGGUGA [whbob_SS_Tryp_A_m6]	K4 kissing-loop RNA reporter	µM	0.296
CGCGCCCAGCCGGAUACCAGUGACCCGCUGGGAACCGCGGGCCCAGAGUGAUGUUCGGGACACCCUUGGCAGCCGCCUGGGCGGG [#2 Same State - Theophylline B Attempt #16 (HarryS)]	K4 kissing-loop RNA reporter	µM	0.46
GGUAGCAUGGCGGCCGCCACUAUCAGGAGUGAUGUUCCAACGCAGAGCUUCAGCUAGUGUGUAAAUAGGACCGGGCCAUGCUACC	K4 kissing-loop RNA reporter	µM	0.177
GCUAUGGUAGGAAGGAGCGCUUAUUUAUUAAUAAGAGUGAUGUUCGAUAGUAGAUAUUUAUAGCAGGUAGGUCGCCUACUAUAGC [Arginine B K4 12]	K4 kissing-loop RNA reporter	µM	0.341
AGUGAUGUUGUGUUAUGCAAGGGAAGUGAUCGAGGACCGGUACGGCCGCCACUCGAGUGAUGAGUGAGUGAUGUUUGUUUAGGGA [ffgmullin]	K4 kissing-loop RNA reporter	µM	0.883
GCGAACAUUCGCAGUGAUGUUGCGACGGAAGGAGCGCGUGAAAACGCAGGUAGGUCGCCGACAACAUUAAUUUUAAUGUGUUCGC [Arginine A K4 28]	K4 kissing-loop RNA reporter	µM	0.356
UUUUAAAUGUCUGAUACCAGAGAAAAUAUAUGUAGUGAUGUUACAUACAAAUUUAAUAAGCUCCCUUGGCAGCAGUAUGAAUUUU [AstrosExc-TheB#15]	K4 kissing-loop RNA reporter	µM	0.067
CAGACAUGCGGUAGGUUCAAGCGCUGGGAAGGAGCGCAGAUGACUGCAGGUAGGUCGCCCAGUGAUGUUGGGCUUUCCACCUAUG [Onbeenbi]	K4 kissing-loop RNA reporter	µM	0.15
UAGUCCGGGUGAUGGUCAUCACGUGGCGGGCGAGGACCGGUACGGCCGCCACUCGACUUUGCAGUGAUGUUGCAAACCGGACAAU [Exclusion - Tryptophan A (Freestyle 22)]	K4 kissing-loop RNA reporter	µM	0.225
GUGAGGAUCCGAAGGAGCGUCCGCAAUCCAGUGAUGUUGGGUGUUGGUUAUAUUUAACGAGGACAGGUAGGUCGCGGAUUUUCAA [Same State Arginie B GF 22]	K4 kissing-loop RNA reporter	µM	0.193
CUGCAAAAGUCGGCCGCCACUCCGGGCCCUAUAAAUGGGCGCAGUGAUGUUGCGGCUAGGCCUCUGAGGACCGGGACUUUGUAAC [Aratan]	K4 kissing-loop RNA reporter	µM	0.131
CCAAUCAGUUACGAUACCAGUCUAAUAUAUUUGAUCAAAACCCUCGCCGAGUGAUGUUCGGACCCUUGGCAGCGUCUGGGACAGG [fcctmullin]	K4 kissing-loop RNA reporter	µM	0.474
UAAGAGGACCACUGCAAAAGUCCUCGAAUACGAGGACCGGUACGGCCGCCACUCGAUAAUUUGCAGUGAUGUUGCAAGUAAGAAU [BrourdMod 4 - Jieux - Same State Tryptophan A]	K4 kissing-loop RNA reporter	µM	0.201
